Values from patent US10329289B2

As shown below, each of these molecules has a reported EC50 value.
Biological target: human M4 muscarinic acetylcholine receptor (Homo sapiens)
Assay: human FLIPR-based M4 PAM assay (Ca2+ mobilization, CHO-K1 cells with human M4 receptor and Gαqi5)
Details: acetylcholine at 20% of maximum response, read-out: M4 PAM IP
Give just the number in nM; leave the unit off.

{"columns": ["smiles.text", "EC50 / nM"],
 "data": [
  ["COc1ccc(O[C@@H]2CCN(c3nc4c(cc3C)C(=O)N(C)C4)C[C@@H]2F)cn1", 22],
  ["CCc1cc2c(nc1N1CCC(Oc3ccc4c(c3)COCC4)CC1)CNC2=O", 96],
  ["Cc1cc2c(nc1N1CCC(Oc3ccc(OCC(F)(F)F)nc3)CC1)CNC2=O", 256]
]}

Could you now look at the following molecule, please?
In plain terms, `COc1ccc(OC2CCN(c3nc4c(c(CF)c3C)C(=O)NC4)CC2)cn1` has a documented EC50 of 241

* * *

Target: UniProt P08173
Assay: human FLIPR-based M4 PAM assay (Ca2+ mobilization, CHO-K1 cells with human M4 receptor and Gαqi5)
Settings: acetylcholine at 20% of maximum response, read-out: M4 PAM IP
measured.quantity: log10(EC50) (log10 of the value in nM)
On a log10 scale: recorded EC50, unit nM.

{"columns": ["compound", "reported.measurement"],
 "data": [
  ["CCc1cc2c(nc1N1CC[C@@H](Oc3cnc4c(c3)COC4)[C@H](F)C1)CNC2=O [Example 213A]", 2.10]
]}

Considering Cc1cc2c(nc1N1CCC(Oc3cnc4c(c3)OCC4)CC1)CNC2=O [Example 216A] , its log10(EC50) with UniProt P08173 was recorded as 2.46

Considering `Cc1cc2c(nc1N1CCC(Oc3cccc(C#N)c3)CC1)CN(C(C)C)C2=O` , its log10(EC50) with UniProt P08173 was recorded as 2.10

Considering CCc1cc2c(nc1N1CC[C@@H](OCC3(C)CC3)C(F)(F)C1)CNC2=O (single isomer, unassigned) [Example 374A] , its log10(EC50) with UniProt P08173 was recorded as 2.62

Considering CCc1cc2c(nc1N1CC[C@H](OCC3(C)CC3)C(F)(F)C1)CNC2=O (single isomer, unassigned) [Example 374B] , its log10(EC50) with UniProt P08173 was recorded as 1.65

Considering `Cc1cc2c(nc1N1CCC(OCC3CCCCC3)CC1)CNC2=O` , its log10(EC50) with UniProt P08173 was recorded as 2.69

Considering `Cc1cc2c(nc1N1CCC(OC3CCOCC3)CC1)CNC2=O` , its log10(EC50) with UniProt P08173 was recorded as 3.24

Considering `Cc1cc2c(nc1N1CCC(Oc3cccc(C#N)c3)CC1)[C@@H](CO)N(C)C2=O` , its log10(EC50) with UniProt P08173 was recorded as 1.36

* * *

As shown below, each of these molecules has a reported pEC50 value.
Target: human M4 muscarinic acetylcholine receptor (Homo sapiens, UniProt P08173)
Construct: expressed in transfected cells; host or cells: CHO-K1
Test: human FLIPR-based M4 PAM assay (Ca2+ mobilization, CHO-K1 cells with human M4 receptor and Gαqi5)
Format: cell-based
Settings: acetylcholine at 20% of maximum response, read-out: M4 PAM IP
Please express pEC50 as -log10 of the molar concentration.

In plain terms, `Cc1cc2c(nc1N1CCC(Oc3ccc(CO)nc3)CC1)CNC2=O` has a documented pEC50 of 6.93

In plain terms, `Cc1cc2c(nc1N1CCC(Oc3cccc(C#N)c3)CC1)CN(C)C2=O` has a documented pEC50 of 7.42

In plain terms, `CCN1Cc2nc(N3CC[C@@H](Oc4ccccc4)[C@@H](F)C3)c(C)cc2C1=O` has a documented pEC50 of 7.49

In plain terms, `Cc1cncc(OC2CCN(c3nc4c(cc3C)C(=O)N(C)[C@H]4CO)CC2)c1` has a documented pEC50 of 5.91

* * *

Biological target: human M4 muscarinic acetylcholine receptor (Homo sapiens, UniProt P08173)
Sequence (P08173 1-479): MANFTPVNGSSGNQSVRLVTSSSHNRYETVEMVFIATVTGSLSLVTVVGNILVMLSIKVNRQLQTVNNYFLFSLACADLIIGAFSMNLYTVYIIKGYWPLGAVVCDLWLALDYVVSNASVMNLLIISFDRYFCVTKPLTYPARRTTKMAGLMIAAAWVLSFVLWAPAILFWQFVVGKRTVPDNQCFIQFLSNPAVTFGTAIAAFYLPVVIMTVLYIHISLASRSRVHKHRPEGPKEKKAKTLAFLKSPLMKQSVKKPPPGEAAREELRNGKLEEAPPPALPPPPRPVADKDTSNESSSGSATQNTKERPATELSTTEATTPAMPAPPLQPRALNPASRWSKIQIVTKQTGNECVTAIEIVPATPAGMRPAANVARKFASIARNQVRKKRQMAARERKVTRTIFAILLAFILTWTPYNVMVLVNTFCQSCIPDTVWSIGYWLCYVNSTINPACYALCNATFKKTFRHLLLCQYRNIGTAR
Test: human FLIPR-based M4 PAM assay (Ca2+ mobilization, CHO-K1 cells with human M4 receptor and Gαqi5)
Conditions: acetylcholine at 20% of maximum response, read-out: M4 PAM IP
Protocol: In a typical experiment the M4 muscarinic acetylcholine receptor modulating activity of the compounds of the present invention was determined in accordance with the following experimental method. […] Next, 10 uL of acetylcholine is added (final concentration calculated so as to achieve 20% of the maximum acetycholine response), and the fluorescence reading is continued for 3.5 min. […]
pEC50: −log10 of the molar value.
Label scheme for pEC50: lower than 7 is not fulfilled, 7 and above is fulfilled.

Worked cases, answers included:
{"columns": ["compound", "label.value"],
 "data": [
  ["Cc1cc2c(nc1N1CCC(Oc3cccc(C#N)c3)CC1)[C@H](CO)N(C)C2=O [Example 346]", "not fulfilled"],
  ["COc1ccc(OC2CCN(c3nc4c(cc3C)C(=O)NC4O)CC2)cn1 (centres unmarked) [Example 298]", "fulfilled"],
  ["Cc1cc2c(nc1N1CCC(Oc3cccc(C=O)c3)CC1)CNC2=O [Example 308]", "not fulfilled"]
]}

# bool: pEC50 of CCc1cc2c(nc1N1CCC(Oc3ccc4c(c3)COCC4)CC1)[C@H](CO)N(C)C2=O [Example 362] >= 7 not fulfilled

# bool: pEC50 of Cc1cc2c(nc1N1CCC(Oc3ccc(OC4CCC4)nc3)CC1)CNC2=O [Example 37] >= 7 not fulfilled

# bool: pEC50 of COc1ccc(OC2CCN(c3nc4c(cc3C)C(=O)N(CCO)C4)CC2)cn1 [Example 238] >= 7 fulfilled

# bool: pEC50 of Cc1cc2c(nc1N1CC[C@@H](Oc3ccc4c(c3)COC4)[C@@H](F)C1)CN(C)C2=O [Example 46] >= 7 fulfilled

# bool: pEC50 of Cc1cc2c(nc1N1CCC(OCC(F)(F)F)CC1)CNC2=O [Example 172A] >= 7 not fulfilled

# bool: pEC50 of Cc1cc2c(nc1N1CCC(Oc3ccncc3)CC1)CNC2=O [Example 77] >= 7 not fulfilled

# bool: pEC50 of Cc1cc2c(nc1N1CCC(OCC(O)C(F)(F)F)CC1)CNC2=O (single isomer, unassigned) [Example 181B] >= 7 not fulfilled

# bool: pEC50 of COc1ccc(OC2CCN(c3nc4c(cc3C)C(=O)NC43CC3)CC2)cn1 [Example 300] >= 7 not fulfilled

# bool: pEC50 of Cc1cc2c(nc1N1CCC(Oc3ccc(OCCN4CCC4)nc3)CC1)CNC2=O [Example 173] >= 7 not fulfilled

# bool: pEC50 of Cc1cc2c(nc1N1CCC(Oc3ccc4c(c3)CCC(C)(C)O4)CC1)CNC2=O [Example 127] >= 7 not fulfilled

# bool: pEC50 of CO[C@H]1Cc2ccc(OC3CCN(c4nc5c(cc4C)C(=O)NC5)CC3)cc2C1 [Example 162B] >= 7 fulfilled

* * *

Target: human M4 muscarinic acetylcholine receptor (Homo sapiens)
Construct: expressed in transfected cells; host or cells: CHO-K1
Assay: human FLIPR-based M4 PAM assay (Ca2+ mobilization, CHO-K1 cells with human M4 receptor and Gαqi5)
Type: cell-based
Conditions: acetylcholine at 20% of maximum response, read-out: M4 PAM IP
measured.quantity: EC50

Take a look at these entries with their results.
{"columns": ["molecule", "test.target", "EC50"],
 "data": [
  ["Cc1cc2c(nc1N1CCC(OC[C@]3(C)CC3(F)F)CC1)CNC2=O [Example 8B]", "human M4 muscarinic acetylcholine receptor (Homo sapiens)", "501 nM"],
  ["Cc1cc2c(nc1N1CCC(Oc3ccc(OC(F)(F)F)nc3)CC1)CNC2=O [Example 124]", "human M4 muscarinic acetylcholine receptor (Homo sapiens)", "362 nM"],
  ["Cc1cc2c(nc1N1CCC(OC[C@@]3(C)C[C@H]3F)CC1)CNC2=O (single isomer, unassigned) [Example 160B]", "human M4 muscarinic acetylcholine receptor (Homo sapiens)", "96 nM"]
]}

Could you now look at the following molecule, please?
Considering COc1ccc(OC2CCN(c3nc4c(cc3C)C(=O)NC4)CC2)cc1 [Example 47] , its EC50 with human M4 muscarinic acetylcholine receptor (Homo sapiens) was recorded as 41 nM
